Just for reference, PubChem BioAssay AID624177 is where these values come from.

biological target: M18 aspartyl aminopeptidase (Plasmodium falciparum); experiment: PfM18AAP aspartyl aminopeptidase inhibitors, dose response, biochemical, QFRET fluorogenic substrate, set 2 (AID 624177); details: recombinant PfM18AAP, H-Glu-NHMec fluorogenic substrate cleavage
Recorded endpoint: pIC50
Please note pIC50 is a logarithmic value: minus log10 of concentration in mol/L. Answer with that number alone.

Compound	pIC50
Oc1ccc(CCCNc2c3c(nc4ccccc24)CCCC3)cc1O	4.97
CN(CCc1ccc(O)c(O)c1)c1ccnc2c(F)cccc12	5.06
Oc1ccc(CCNc2ccnc3c(F)cccc23)cc1O	5.01

Then there is this compound:
Problem: I have this compound here, Oc1ccc(C2CCN(c3ccnc4ccccc34)C2)cc1O (stereo not given) , and I need its recorded pIC50.
Result: 5.18

====

biological target: M18 aspartyl aminopeptidase (Plasmodium falciparum); test: PfM18AAP aspartyl aminopeptidase inhibitors, dose response, biochemical, QFRET fluorogenic substrate, set 2 (AID 624177); conditions: recombinant PfM18AAP, H-Glu-NHMec fluorogenic substrate cleavage
pIC50: −log10 of the molar value.
Binary classification by pIC50, with 5 as an inclusive lower bound for 1; all other cases are 0.

Compound structure	Cat
Oc1ccc(C2CCN(c3ccnc4ccccc34)CC2)cc1O	1
CC(C)(CNc1ccnc2ccccc12)c1ccc(O)c(O)c1	0

Problem: Reported pIC50 reaches at least 5 for "Oc1cccc(CCNc2ccnc3ccccc23)c1O" ?
Result: 0

Problem: Reported pIC50 reaches at least 5 for "CCN(CCc1ccc(O)c(O)c1)c1c2ccccc2nc2ccccc12" ?
Result: 0

Problem: Reported pIC50 reaches at least 5 for "CN(CCCc1ccc(O)c(O)c1)c1c2ccccc2nc2ccccc12" ?
Result: 0

====

target: M18 aspartyl aminopeptidase (Plasmodium falciparum); experiment: PfM18AAP aspartyl aminopeptidase inhibitors, dose response, biochemical, QFRET fluorogenic substrate, set 2 (AID 624177); conditions: recombinant PfM18AAP, H-Glu-NHMec fluorogenic substrate cleavage
Recorded endpoint: pIC50
Please note pIC50 is a logarithmic value: minus log10 of concentration in mol/L. Answer with that number alone.

Compound	pIC50
CN(CCc1ccc(O)c(O)c1)c1ccnc2cc(Cl)ccc12	5.07
CN(CCc1ccc(O)c(O)c1)c1ncnc2ccccc12	5.11
Cc1cc(N(C)CCc2ccc(O)c(O)c2)c2ccccc2n1	4.92
CN(CCCc1ccc(O)c(O)c1)c1ccnc2ccccc12	4.99
Oc1ccc(C2CCCN(c3ccnc4ccccc34)C2)cc1O (stereo unspecified)	5.14

Then there is this compound:
Problem: I have this compound here, "Cc1cccc2c(N(C)CCc3ccc(O)c(O)c3)ccnc12" , and I need its recorded pIC50.
Result: 4.92
